# System: SN12C renal
# TEST METHOD NOTES: NCI tumour cell line growth inhibition, 48 h
Entries and their TGI

Would you please look over these solved cases?
compound=O=C(O)COc1cc(-c2ccccc2F)nc2cc3c(cc12)OCO3 target_system="SN12C renal" observed_value="> 100 µM"
compound="CSC1=NC(=O)CCN1C1OCC(OC(C)=O)C(OC(C)=O)C1OC(C)=O (stereo unspecified)" target_system="SN12C renal" observed_value="> 31.6 µM"
compound="CN1CCN2c3ccccc3CC(C#N)(C#N)C2C1 (stereo unspecified)" target_system="SN12C renal" observed_value="> 100 µM"
compound=CC(C)(C)c1cc(O)c2c(c1O)C(=O)CCC2 target_system="SN12C renal" observed_value="> 100 µM"
compound=CN(C)CCn1c2c(c3ccccc31)CCc1ccccc1-2 target_system="SN12C renal" observed_value="28.3 µM"
compound=COc1cccc([C@@H]2C/C(=N\NC(=O)C(=O)N[C@@H](C)c3ccccc3)c3cc4c(cc3N2)OCO4)c1 target_system="SN12C renal" observed_value="> 100 µM"
compound=Cc1ccc(C(=O)Nc2ccc(CN3CCN(C)CC3)c(C(F)(F)F)c2)cc1C#Cc1cnc(N)c2ccc(C#N)cc12 target_system="SN12C renal" observed_value="3.07 µM"
compound="CCC(C#N)NCc1ccc(CNC(C#N)CC)cc1 (stereo unspecified)" target_system="SN12C renal" observed_value="> 100 µM"
compound=CCCCCCCCCCCCCCCCCc1cc(Cl)nc(Cl)n1 target_system="SN12C renal" observed_value="> 100 µM"
compound=CCOc1ccccc1NC(=O)CSc1nnc(Cc2ccccc2)o1 target_system="SN12C renal" observed_value="64.9 µM"

Pending compound:
(Q) I'd like to know its TGI. The compound in question is CC(=O)Oc1c(C)cc2c(c1C)C(C)(C)CN2C(=O)C(C)(C)C
(A) > 100 µM

* * *

Entries and their TGI
# Tested on: RXF 393 renal
# TEST METHOD NOTES: NCI tumour cell line growth inhibition, 48 h

compound=Cc1c2ccccc2c(CSC(=N)N)c2ccccc12 readout_kind=TGI observed_value="0.161 µM"
compound=CCN1C(=O)/C(=C\c2coc3ccccc3c2=O)SC1=S readout_kind=TGI observed_value="> 100 µM"
compound=O=C1c2cccc3c([N+](=O)[O-])ccc(c23)C(=O)N1CCCCl readout_kind=TGI observed_value="> 10 µM"

Pending compound:
(Q) Give TGI (RXF 393 renal) of the following compound: O=C(/C=C/c1ccc[nH]1)c1ccccc1
(A) > 100 µM

* * *

Entries and their log10 TGI
# System: HT29 colon
# TEST METHOD NOTES: NCI tumour cell line growth inhibition, 48 h
Values reflect log10 of reported TGI (µM).

chemical_structure=Cc1c2ccccc2c(CSC(=N)N)c2ccccc12 observed_value=0.02
chemical_structure=CCN(CC)c1ccc(CNc2cc(C)nc3ccc(OC)cc23)cc1 observed_value=0.56
chemical_structure=O=c1[nH]c(=S)n(-c2cccc3ccccc23)c(O)c1/C=C1\C=Nc2ccccc21 observed_value=0.70
chemical_structure=c1cc2c(cc1NC1=NCCO1)CCCC2 observed_value=0.86
chemical_structure=CN(C)CCn1c2c(c3ccccc31)CCc1ccccc1-2 observed_value=1.32

(Q) Give log10 TGI (HT29 colon) of the following compound: COc1cc2c(cc1OCCCOc1cc3c(cc1OC)C(=O)N1CC(F)(F)C[C@H]1C=N3)N=C[C@@H]1CC(F)(F)CN1C2=O
(A) 1.11
